IC50 listing for selected molecules.
# SUBJECT OF TEST: Recombinant Cat D (Homo sapiens (Human))
# TEST METHOD NOTES: In vitro enzymatic Cathepsin D (Cat D) FRET assay
# Type: biochemical
# RECORDED CONDITIONS: read-out: IC50 IP (μM) CatD
Report as a plain number; the unit µM is understood.

INSERT INTO results (compound, measurement_units, number) VALUES
  ('C/C(=C/[C@]12C[C@H]1[C@@](CF)(c1cc(NC(=O)c3ccc(Cl)cn3)ccc1F)N=C(N)S2)C(=O)N1CCOCC1', 'µM', 834),
  ('C[C@]1(c2cc(Nc3nccc4nc(OCc5ncco5)cnc34)ccc2F)N=C(N)S[C@]2(CO)[C@H]1C2(F)F', 'µM', 183),
  ('COC[C@]12C[C@H]1[C@@](C)(c1cc(NC(=O)c3ncc(OCc4ncco4)cc3C)cc(F)c1F)N=C(N)S2', 'µM', 865);

Qu. Which IC50 value is on record for `C#CCOc1cnc2c(Nc3cnc(F)c([C@@]4(C)N=C(N)S[C@@]5(CF)C[C@H]54)c3)nccc2n1` ?
Ans. 1680

Qu. And then `CC1(NC(=O)[C@]23C[C@H]2[C@@](C)(c2cc(NC(=O)c4cnc(OCC(F)(F)F)cn4)ccc2F)N=C(N)S3)CC1` , what is it?
Ans. 324

====

# SUBJECT OF TEST: Recombinant Cat D (Homo sapiens (Human), UniProt P07339)
# Sequence (P07339 65-412): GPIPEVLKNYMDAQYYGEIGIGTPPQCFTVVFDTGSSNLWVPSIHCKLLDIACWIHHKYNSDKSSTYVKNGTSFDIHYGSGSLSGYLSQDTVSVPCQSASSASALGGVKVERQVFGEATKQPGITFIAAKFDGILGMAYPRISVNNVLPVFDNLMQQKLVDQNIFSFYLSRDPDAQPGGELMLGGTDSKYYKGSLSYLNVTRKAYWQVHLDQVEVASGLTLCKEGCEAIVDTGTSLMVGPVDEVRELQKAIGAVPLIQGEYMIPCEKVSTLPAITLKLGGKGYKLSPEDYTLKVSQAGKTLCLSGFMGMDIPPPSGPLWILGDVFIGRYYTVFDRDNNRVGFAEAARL
# TEST METHOD NOTES: In vitro enzymatic Cathepsin D (Cat D) FRET assay
# Format: biochemical
# RECORDED CONDITIONS: read-out: IC50 IP (μM) CatD
READOUT LABEL: IC50 (µM)
Give the value, in units of µM, as a plain number.

Qu. Would you mind telling me what IC50 value was observed for `CN(C)C(=O)/C=C/[C@]12C[C@H]1[C@@](CF)(c1cc(Nc3nccc4nc(OCc5ncco5)cnc34)ccc1F)N=C(N)S2` ?
Ans. 224

Qu. And `COC[C@]12C[C@H]1[C@@](C)(c1cc(Nc3nccc4nc(OCc5nc(C)no5)cnc34)cc(F)c1F)N=C(N)S2` ?
Ans. 911

Qu. Would you kindly repeat that for `CNC(=O)[C@]12C[C@H]1[C@@](C)(c1cc(NC(=O)c3cnc(OCC(F)(F)F)cn3)ccc1F)N=C(N)S2` ?
Ans. 1570

====

# SUBJECT OF TEST: Recombinant Cat D (Homo sapiens (Human), UniProt P07339)
# TEST METHOD NOTES: In vitro enzymatic Cathepsin D (Cat D) FRET assay
# Format: biochemical
# RECORDED CONDITIONS: read-out: IC50 IP (μM) CatD
In this section, each of the molecules is paired with its reported IC50.
Express your answer in µM, writing the number without its unit.

Solved cases below.
INSERT INTO assay_data (compound, measurement_units, number) VALUES
  ('Cc1cnnn1C[C@]12C[C@H]1[C@@](CF)(c1cc(NC(=O)c3ccc(Cl)cn3)ccc1F)N=C(N)S2', 'µM', 1160),
  ('COc1ncc(NC(=O)c2ccc(Cl)cn2)cc1[C@@]1(C)N=C(N)S[C@@]2(C(F)F)C[C@@H]12', 'µM', 67),
  ('COC[C@]12C[C@H]1[C@@](C)(c1cc(Nc3nccc4cc(OC)cnc34)cc(F)c1F)N=C(N)S2', 'µM', 2880);

Qu. Entry `C#CCOc1cnc2c(Nc3cnc(F)c([C@@]4(C)N=C(N)S[C@@]5([C@H](O)C(F)(F)F)C[C@H]54)c3)nccc2n1` : reported IC50 = ?
Ans. 462

Qu. Repeat for the following molecule: `COC[C@]12C[C@H]1[C@@](C)(c1cc(NC(=O)c3cnc(OCc4cc(C)no4)cn3)cc(F)c1F)N=C(N)S2`
Ans. 775

Qu. Another: `CC#CCOc1cnc2c(Nc3ccc(F)c([C@@]4(CF)N=C(N)S[C@@]5(CF)C[C@H]54)c3)nccc2n1`
Ans. 325

Qu. Now the same for `C#CCOc1cnc(C(=O)Nc2ccc(F)c([C@@]3(CF)N=C(N)S[C@@]4(COC(C)C)C[C@H]43)c2)cn1`
Ans. 48

Qu. Also, `C#CCOc1cnc(C(=O)Nc2ccc(F)c([C@@]3(C)N=C(N)S[C@@]4(C(F)F)C[C@@H]34)c2)c(C)n1` please.
Ans. 121

Qu. # repeat for `C[C@]1(c2cc(Nc3ncnc4cc(C#N)cnc34)ccc2F)N=C(N)S[C@@]2(CO)[C@@H]1C2(F)F`
Ans. 171

Qu. Please give the result for `Cc1nc(OCC(F)(F)F)cnc1C(=O)Nc1cc(F)c(F)c([C@@]2(C)N=C(N)S[C@@]3(C(F)F)C[C@@H]23)c1` too.
Ans. 102
